# subject_of_test: T1, Anti-CD28 scFv (VH - linker 1 - VL) (biotinylated (site not stated))
# T1 construct: Biotinylated scFv captured on neutravidin coated plates in the panning ELISA
# method_notes: phage ELISA; biotinylated anti-CD28 scFv on neutravidin plate, clonal phage supernatant, anti-M13-HRP;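 further: before the phage were added, wells were pre-incubated with soluble CD28 protein in blocking buffer, or with blocking buffer alone, and were not washed in between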
Reported CD28 scFv signal values for the following binders.
Respond numerically, and do not add a unit to the figure.

binder: MDWCPRHLWTYCFH [Phage-376]
CD28 scFv signal: 0.757
//
binder: MNWCPRALWHECFL [Phage-375]
CD28 scFv signal: 0.759
//
binder: MDWCPRYLWVDCFA [Phage-372]
CD28 scFv signal: 0.917

Kindly consider the entry below.
input: // returns reported CD28 scFv signal for input MAWCPLDLWDKCFY [Phage-374]
output: 0.77
